Data provenance: PubChem BioAssay

For each record, write down the corresponding composite z-score.
target-or-test-system: Albumin (Bos taurus) (UniProt P02769)
Sequence (P02769 whole entry, looked up): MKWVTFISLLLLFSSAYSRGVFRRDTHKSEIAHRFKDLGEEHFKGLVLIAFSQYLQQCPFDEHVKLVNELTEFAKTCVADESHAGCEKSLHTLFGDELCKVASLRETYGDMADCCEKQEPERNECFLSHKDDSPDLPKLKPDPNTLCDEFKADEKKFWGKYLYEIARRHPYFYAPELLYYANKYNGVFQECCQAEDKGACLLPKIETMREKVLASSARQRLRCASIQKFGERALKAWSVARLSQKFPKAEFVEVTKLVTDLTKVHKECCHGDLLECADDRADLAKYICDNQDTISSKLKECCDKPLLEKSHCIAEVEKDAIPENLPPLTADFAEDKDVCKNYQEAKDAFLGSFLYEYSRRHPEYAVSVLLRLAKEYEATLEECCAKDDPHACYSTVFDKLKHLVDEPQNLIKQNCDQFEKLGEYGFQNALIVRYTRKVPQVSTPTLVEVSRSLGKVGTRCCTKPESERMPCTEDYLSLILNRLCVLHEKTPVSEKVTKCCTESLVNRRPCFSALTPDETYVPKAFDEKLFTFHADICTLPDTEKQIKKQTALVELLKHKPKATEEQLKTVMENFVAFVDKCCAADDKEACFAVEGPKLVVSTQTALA
method-notes: compounds binding labelled BSA control protein – biochemical, small-molecule microarray, Alexa647 label, 635/667 nm fluorescence, artefact control for SMM control protein annotation, profiling panel (AID 1118);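 note: score merges 667 nm emission intensity and signal-to-noise per printed compound spot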
assay-conditions: BSA-A647 binding, fluorescence 635 nm, higher = more signal
The answer should be a number; do not append a unit.

// lookup composite z-score | system=Albumin (Bos taurus) (UniProt P02769) | key= `CCC#CCN(Cc1ccccc1Br)[C@H](/C=C/C1CC1)[C@@H](O)Cc1ccccc1`
0.0902

// lookup composite z-score | system=Albumin (Bos taurus) (UniProt P02769) | key= `C=CCNC(=O)[C@@H]1[C@H]2C(=O)O[C@H](c3ccccc3)[C@H](c3ccccc3)N2[C@H](c2ccccc2OCCO)[C@@]12C(=O)N(C(=O)OCCOC)c1ccc(C#CC3(O)CCCCCC3)cc12`
0.351

// lookup composite z-score | system=Albumin (Bos taurus) (UniProt P02769) | key= `CO[C@H]1O[C@H](CO)[C@@H](OC(=O)Nc2ccc3c(c2)OCO3)[C@H](OC(=O)Nc2ccc3c(c2)OCO3)[C@@H]1OC(=O)Nc1ccc2c(c1)OCO2`
0.792
